# System: M. smegmatis
# EXPERIMENT: MIC determination on solid agar
# Type: cell-based, Mycobacterium smegmatis
# STUDY CONDITIONS: Mycolicibacterium smegmatis; M. smegmatis, 7H10 solid agar; absence of colonies; read-out: Solid MIC
Where a name gives a salt, the structure may show the parent alone.
Hi! Could you tag entries with MIC below 60 µM as y, and those at or above as n? Much appreciated.

## Input Strictly below 60 µM in MIC? `Fc1ccc(C(OCCN2CCN(CCCc3ccccc3)CC2)c2ccc(F)cc2)cc1`
## Output n

## Input Strictly below 60 µM in MIC? COC(=O)C1=C(C)NC(C)=C(C(=O)OCC(C)C)C1c1ccccc1[N+](=O)[O-] (centres unmarked)
## Output n

## Input Strictly below 60 µM in MIC? `CN1CCc2cccc3c2[C@H]1Cc1ccc(O)c(O)c1-3`
## Output n

## Input Strictly below 60 µM in MIC? CC(NCCC(c1ccccc1)c1ccccc1)c1ccccc1 (centres unmarked) [Fendiline hydrochloride]
## Output y

## Input Strictly below 60 µM in MIC? CCN(CC)CCOc1ccc(C(=C(Cl)c2ccccc2)c2ccccc2)cc1 [Clomiphene citrate]
## Output y

## Input Strictly below 60 µM in MIC? `[H]/N=C(\N/C(=N/[H])NCCCCCCNC(=N)NC(=N)Nc1ccc(Cl)cc1)Nc1ccc(Cl)cc1`
## Output y

## Input Strictly below 60 µM in MIC? `CN(C)CCOc1ccc(/C(=C(/CCCl)c2ccccc2)c2ccccc2)cc1`
## Output n

## Input Strictly below 60 µM in MIC? `CN[C@H]1CC[C@@H](c2ccc(Cl)c(Cl)c2)c2ccccc21`
## Output n

----------
# Test system: HepG2 cells
# EXPERIMENT: HepG2 cytotoxicity assay (CellTitre-Glo)
# Type: cell-based
# STUDY CONDITIONS: Homo sapiens, HepG2, 48 hours
METRIC NAME: pIC50
Expect pIC50 as a plain number equal to -log10 of the molar concentration.

Data point: `N=C(N)c1ccc(OCCCCCOc2ccc(C(=N)N)cc2)cc1` ; pIC50 = 5.46

Data point: `Fc1ccc(C(OCCN2CCN(CCCc3ccccc3)CC2)c2ccc(F)cc2)cc1` ; pIC50 = 4.26

Data point: `O=c1c2ccccc2[se]n1-c1ccccc1` ; pIC50 = 4.35

----------
# System: BCG
# EXPERIMENT: microbe, parasite or virus in culture
# Assay type: cell-based, Mycobacterium bovis BCG
# STUDY CONDITIONS: Mycobacterium tuberculosis variant bovis BCG, BCG, read-out: Liquid MIC
Provide the recorded MIC for the entries that follow.
Response body: numeric value in µM, unit text excluded.

Data point: CN1C2CCCC1CC(NC(=O)c1nn(C)c3ccccc13)C2 (centres unmarked) [Granisteron, Granisetron] ; MIC = 211

Data point: CN(C)CC/C=C1/c2ccccc2COc2ccc(CC(=O)O)cc21 [Olopatadine] ; MIC = 202

Data point: CC(C)(N)Cc1ccccc1 [Phenteramine, Phentermine] ; MIC = 375

Data point: CN(C)CCN(Cc1ccccc1)c1ccccn1 [Tripelennamine] ; MIC = 41.9

Data point: CN(CCOc1ccc(CC2SC(=O)NC2=O)cc1)c1ccccn1 (centres unmarked) [Rosiglitazone] ; MIC = 43.1

----------
# Tested on: BCG
# EXPERIMENT: microbe, parasite or virus in culture
# Assay type: cell-based, Mycobacterium bovis BCG
# STUDY CONDITIONS: Mycobacterium tuberculosis variant bovis BCG, BCG, read-out: Liquid MIC
Hi! Could you tag entries with MIC below 3 µM as class 1, and those at or above as class 0? Much appreciated.

## Input Strictly below 3 µM in MIC? `CO[C@@H]1[C@@H](O[C@@H]2O[C@H](C)[C@@H](O[C@H]3C[C@@](C)(O)[C@@H](OC(=O)CC(C)C)[C@H](C)O3)[C@H](N(C)C)[C@H]2O)[C@@H](CC=O)C[C@@H](C)[C@@H](O)/C=C/C=C/C[C@@H](C)OC(=O)C[C@H]1OC(C)=O`
## Output class 1

## Input Strictly below 3 µM in MIC? `COc1ccc(CCN2CCC(Nc3nc4ccccc4n3Cc3ccc(F)cc3)CC2)cc1`
## Output class 0

## Input Strictly below 3 µM in MIC? `Fc1ccc(C(OCCN2CCN(CCCc3ccccc3)CC2)c2ccc(F)cc2)cc1`
## Output class 0

## Input Strictly below 3 µM in MIC? Cc1cnc(C(=O)NCCc2ccc(S(=O)(=O)NC(=O)NC3CCCCC3)cc2)cn1 [Glipizide]
## Output class 0

## Input Strictly below 3 µM in MIC? CCCCCCCCCCCCCCCC[N+](C)(C)CCN(Cc1ccc(OC)cc1)c1ncccn1 [Thonzonium, Thonzonium bromide]
## Output class 1

## Input Strictly below 3 µM in MIC? `CS(=O)(=O)c1ccc([C@@H](O)[C@@H](CF)NC(=O)C(Cl)Cl)cc1`
## Output class 1

## Input Strictly below 3 µM in MIC? `N=C(N)c1ccc(OCCCCCOc2ccc(C(=N)N)cc2)cc1`
## Output class 0
